- test-system: 14-3-3γ (Homo sapiens)
- Construct: made in house; host or cells: E. coli NiCo21 (DE3)
- Sequence (P61981 whole entry): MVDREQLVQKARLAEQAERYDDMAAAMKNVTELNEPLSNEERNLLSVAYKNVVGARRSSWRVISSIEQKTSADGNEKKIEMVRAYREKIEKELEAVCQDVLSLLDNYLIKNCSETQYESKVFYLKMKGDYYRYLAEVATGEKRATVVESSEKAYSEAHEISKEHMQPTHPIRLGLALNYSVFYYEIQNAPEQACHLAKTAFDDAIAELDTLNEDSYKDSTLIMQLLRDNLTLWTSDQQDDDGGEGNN
- assay-procedure: Fluorescence anisotropy (FA) binary binding study: 14-3-3 titrated to fluorescein-labelled peptide
- condition-parameters: Table S3; ΔG of peptide minus ΔG of previous (one amino acid longer) peptide, FA; mean of n = 3
Where a SMILES comes first, the peptide text is derived from it. [ ]: non-standard residue; d: D form. The star is where a group is joined. ξ: configuration not given here. FITC = O=C1OC2(c3ccc(O)cc3Oc3cc(O)ccc32)c2ccc(NC(=S)*)cc21; Phe(4-NO2) = N[C@@H](Cc1ccc([N+](=O)[O-])cc1)C(=O)O; ξAla(4-thiazolyl) = NC(Cc1cscn1)C(=O)O; pS = N[C@@H](COP(=O)(O)O)C(=O)O; β3hS = N[C@@H](CO)CC(=O)O; Nva = CCC[C@H](N)C(=O)O; AEA = NCCOCC(=O)O; βAla = NCCC(=O)O
attribute-measured: ΔΔG (to previous)

Take a look at these entries with their results.
1) CCC[C@H](NC(=O)[C@@H](CCCCN)NC(=O)COCCNC(=S)Nc1ccc2c(c1)C(=O)OC21c2ccc(O)cc2Oc2cc(O)ccc21)C(=O)N[C@@H](Cc1ccc([N+](=O)[O-])cc1)C(=O)NC(Cc1cscn1)C(=O)N[C@@H](COP(=O)(O)O)C(=O)N[C@@H](Cc1ccc([N+](=O)[O-])cc1)C(N)=O (stereo partly shown) [2h] ({FITC-AEA}-[dK][Nva][Phe(4-NO2)][ξAla(4-thiazolyl)][pS][Phe(4-NO2)]-NH2) : 0,63 kcal/mol
2) CCC[C@H](NC(=O)[C@@H](CCCCN)NC(=O)COCCNC(=S)Nc1ccc2c(c1)C(=O)OC21c2ccc(O)cc2Oc2cc(O)ccc21)C(=O)N[C@@H](Cc1ccc([N+](=O)[O-])cc1)C(=O)NC(Cc1cscn1)C(=O)N[C@@H](COP(=O)(O)O)C(=O)N[C@@H](Cc1ccc([N+](=O)[O-])cc1)C(=O)N[C@@H](CO)CC(=O)NCCC(N)=O (stereo partly drawn) [2f] ({FITC-AEA}-[dK][Nva][Phe(4-NO2)][ξAla(4-thiazolyl)][pS][Phe(4-NO2)][β3hS][βAla]-NH2) : 1,49 kcal/mol
3) CCC[C@H](NC(=O)[C@@H](CCCCN)NC(=O)COCCNC(=S)Nc1ccc2c(c1)C(=O)OC21c2ccc(O)cc2Oc2cc(O)ccc21)C(=O)N[C@@H](Cc1ccc([N+](=O)[O-])cc1)C(=O)NC(Cc1cscn1)C(=O)N[C@@H](COP(=O)(O)O)C(N)=O (stereo partly shown) [2i] ({FITC-AEA}-[dK][Nva][Phe(4-NO2)][ξAla(4-thiazolyl)][pS]-NH2) : 0,82 kcal/mol

query: Give reported ΔΔG (to previous) value for CCC[C@H](NC(=O)[C@@H](CCCCN)NC(=O)COCCNC(=S)Nc1ccc2c(c1)C(=O)OC21c2ccc(O)cc2Oc2cc(O)ccc21)C(=O)N[C@@H](Cc1ccc([N+](=O)[O-])cc1)C(=O)NC(Cc1cscn1)C(=O)N[C@@H](COP(=O)(O)O)C(=O)N[C@@H](Cc1ccc([N+](=O)[O-])cc1)C(=O)N[C@@H](CO)CC(=O)NCCC(=O)N[C@@H](Cc1ccc([N+](=O)[O-])cc1)C(N)=O (stereo partly drawn) [2e] ({FITC-AEA}-[dK][Nva][Phe(4-NO2)][ξAla(4-thiazolyl)][pS][Phe(4-NO2)][β3hS][βAla][Phe(4-NO2)]-NH2)
result: 1,00 kcal/mol
